# measurement_target: Macrophage-stimulating protein receptor (Homo sapiens, UniProt Q04912)
# Sequence (Q04912 25-304 limits assumed): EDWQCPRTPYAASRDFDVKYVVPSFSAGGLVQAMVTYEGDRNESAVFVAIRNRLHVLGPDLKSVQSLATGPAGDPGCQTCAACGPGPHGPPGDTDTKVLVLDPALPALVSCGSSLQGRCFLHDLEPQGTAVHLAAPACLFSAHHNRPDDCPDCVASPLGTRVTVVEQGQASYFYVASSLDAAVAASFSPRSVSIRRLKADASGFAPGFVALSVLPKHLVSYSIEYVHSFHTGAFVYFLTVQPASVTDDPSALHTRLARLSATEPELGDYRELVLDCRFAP
# Sequence (Q04912 310-1400 limits assumed): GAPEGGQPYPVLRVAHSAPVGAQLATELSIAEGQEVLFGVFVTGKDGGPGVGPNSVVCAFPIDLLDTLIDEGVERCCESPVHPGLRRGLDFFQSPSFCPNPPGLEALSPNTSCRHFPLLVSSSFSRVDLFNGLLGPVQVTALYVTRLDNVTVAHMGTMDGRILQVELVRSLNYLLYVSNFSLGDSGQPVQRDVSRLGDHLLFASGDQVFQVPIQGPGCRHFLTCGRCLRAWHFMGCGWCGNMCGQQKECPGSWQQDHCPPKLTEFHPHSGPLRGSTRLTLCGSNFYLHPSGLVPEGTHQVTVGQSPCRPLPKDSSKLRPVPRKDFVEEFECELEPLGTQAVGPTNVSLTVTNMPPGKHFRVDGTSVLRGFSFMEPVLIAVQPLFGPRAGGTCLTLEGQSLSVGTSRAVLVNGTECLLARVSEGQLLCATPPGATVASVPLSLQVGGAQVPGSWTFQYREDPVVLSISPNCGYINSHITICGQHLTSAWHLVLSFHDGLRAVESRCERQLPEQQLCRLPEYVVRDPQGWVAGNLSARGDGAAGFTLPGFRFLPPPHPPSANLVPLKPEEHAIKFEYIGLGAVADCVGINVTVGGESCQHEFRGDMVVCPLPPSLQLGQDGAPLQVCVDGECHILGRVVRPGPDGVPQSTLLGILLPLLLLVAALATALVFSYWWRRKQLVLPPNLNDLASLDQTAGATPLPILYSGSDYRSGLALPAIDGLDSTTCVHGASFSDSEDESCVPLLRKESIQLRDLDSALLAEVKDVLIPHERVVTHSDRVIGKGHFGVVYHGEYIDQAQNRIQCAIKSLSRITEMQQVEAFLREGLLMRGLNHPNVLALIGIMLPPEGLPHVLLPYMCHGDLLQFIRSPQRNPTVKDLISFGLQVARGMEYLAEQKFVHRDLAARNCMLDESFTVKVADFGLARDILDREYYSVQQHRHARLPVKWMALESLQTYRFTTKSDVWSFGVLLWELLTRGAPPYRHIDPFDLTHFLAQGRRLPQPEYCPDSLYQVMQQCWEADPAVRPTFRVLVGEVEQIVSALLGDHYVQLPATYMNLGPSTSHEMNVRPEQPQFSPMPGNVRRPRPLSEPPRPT
pIC50: −log10 of the molar value.
recorded_endpoint: pIC50

Macrophage-stimulating protein receptor (Homo sapiens, UniProt Q04912) / pIC50 / CC(=O)N1CCN(c2cnc3cc(C(F)(F)F)cc(NCc4cccc([N+](=O)[O-])c4)c3c2)CC1 : value?
< 5.00
